Target: HIV-integrase (recombinant integrase) (Human immunodeficiency virus type 1 group M subtype B, UniProt P12497)
Construct: Recombinant integrase (0.26 ng) was incubated with the beads
Assay: HIV-Integrase Inhibition Activity (SPA bead strand-transfer assay)
Conditions: recombinant integrase on biotin labeled substrate DNA/SPA beads, P33 labeled target DNA; read-out: Activity (IC50 against HIV-integrase)
experimentalReadout: IC50

As a guide, the following entries are already answered.
{"compound": "Cn1c(N2CCCCS2(=O)=O)nc(C(=O)NCc2cc(Cl)ccc2Cl)c(O)c1=O", "observedValue": "0.1 to 1 µM"}
{"compound": "Cn1c(N2CCCCS2(=O)=O)nc(C(=O)NCCc2ccc(F)cc2)c(O)c1=O", "observedValue": "≥ 1 µM"}
{"compound": "Cn1c(N2CCOCC2)nc(C(=O)NCc2ccc(F)c(Cl)c2)c(O)c1=O", "observedValue": "0.003 to 0.1 µM"}
{"compound": "Cc1ncn(-c2nc(C(=O)NCc3ccc(F)c(C)c3)c(O)c(=O)n2C)n1", "observedValue": "0.003 to 0.1 µM"}

Exam item: Give IC50 for the following compound: Cc1cc(CNC(=O)c2nc(N3CCCCC3CCO)n(C)c(=O)c2O)ccc1F (centres unmarked)
Marked response: 0.003 to 0.1 µM

Exam item: State its IC50: Cn1c(N2CCCCS2(=O)=O)nc(C(=O)NCCc2cccc(Cl)c2)c(O)c1=O
Marked response: 0.1 to 1 µM

###

A collection of compounds and their measured IC50
Target: HIV-integrase (recombinant integrase) (Human immunodeficiency virus type 1 group M subtype B)
Construct: Recombinant integrase (0.26 ng) was incubated with the beads
Test: HIV-Integrase Inhibition Activity (SPA bead strand-transfer assay)
Settings: recombinant integrase on biotin labeled substrate DNA/SPA beads, P33 labeled target DNA; read-out: Activity (IC50 against HIV-integrase)

{"structureSmiles": "Cc1cc(CNC(=O)c2nc(N3CCOCC3)n(C)c(=O)c2O)ccc1F", "IC50": "3 to 100 nM"}
{"structureSmiles": "Cn1c(N2CCCCS2(=O)=O)nc(C(=O)NCCc2cccc(F)c2)c(O)c1=O", "IC50": "≥ 1000 nM"}
{"structureSmiles": "CNC(=O)N1CCN(c2nc(C(=O)NCc3ccc(F)cc3)c(O)c(=O)n2C)CC1", "IC50": "3 to 100 nM"}
{"structureSmiles": "Cc1cc(CNC(=O)c2nc(N3CCC3)n(C)c(=O)c2O)ccc1F", "IC50": "3 to 100 nM"}
{"structureSmiles": "Cn1c(N2CCC[C@H]2C(N)=O)nc(C(=O)NCc2ccc(F)cc2)c(O)c1=O", "IC50": "3 to 100 nM"}

Exam item: Give recorded IC50. Cn1c(N2CCOCC2)nc(C(=O)NCc2ccc(Cl)c(Cl)c2)c(O)c1=O
Marked response: 3 to 100 nM

Exam item: Please indicate IC50 recorded for Cc1cc(CNC(=O)c2nc(N3CCN(c4ccccn4)CC3)n(C)c(=O)c2O)ccc1F
Marked response: 3 to 100 nM

Exam item: Name the recorded IC50 of the compound listed here: Cn1c(N2CCN(c3ccccc3)CC2)nc(C(=O)NCc2ccc(F)cc2)c(O)c1=O
Marked response: 3 to 100 nM

Exam item: State its IC50 for this compound: Cc1cccc(CNC(=O)c2nc(N3CCCCS3(=O)=O)n(C)c(=O)c2O)c1
Marked response: 3 to 100 nM

Exam item: Please supply the value of reported IC50 for the item Cn1c(N2CCCCS2(=O)=O)nc(C(=O)NCc2ccccc2)c(O)c1=O
Marked response: 100 to 1000 nM

###

Target: HIV-integrase (recombinant integrase) (Human immunodeficiency virus type 1 group M subtype B)
Construct: Recombinant integrase (0.26 ng) was incubated with the beads
Assay: HIV-Integrase Inhibition Activity (SPA bead strand-transfer assay)
Conditions: recombinant integrase on biotin labeled substrate DNA/SPA beads, P33 labeled target DNA; read-out: Activity (IC50 against HIV-integrase)
Reported IC50 is given for each of the following molecules.

Consider the following illustrative entries.
{"structureSmiles": "Cn1c(N2CCCCS2(=O)=O)nc(C(=O)NCc2cc(C(F)(F)F)cc(C(F)(F)F)c2)c(O)c1=O", "experimentalReadout": "IC50", "observedValue": "≥ 1000 nM"}
{"structureSmiles": "Cn1c(N2CCCCS2(=O)=O)nc(C(=O)NCc2ccc(F)c(C(F)(F)F)c2)c(O)c1=O", "experimentalReadout": "IC50", "observedValue": "3 to 100 nM"}
{"structureSmiles": "Cc1cc(CNC(=O)c2nc(N3CCN(C(=O)N4CCNC4=O)CC3)n(C)c(=O)c2O)ccc1F", "experimentalReadout": "IC50", "observedValue": "3 to 100 nM"}
{"structureSmiles": "Cc1cc(CNC(=O)c2nc(N3CCNCC3)n(C)c(=O)c2O)ccc1F", "experimentalReadout": "IC50", "observedValue": "3 to 100 nM"}

Now take the following molecule into account.
Exam item: Provide one value: measured IC50 of COc1ccccc1CCNC(=O)c1nc(N2CCCCS2(=O)=O)n(C)c(=O)c1O
Marked response: ≥ 1000 nM

###

Molecular target: HIV-integrase (recombinant integrase) (Human immunodeficiency virus type 1 group M subtype B)
Construct: Recombinant integrase (0.26 ng) was incubated with the beads
Experiment: HIV-Integrase Inhibition Activity (SPA bead strand-transfer assay)
Conditions: recombinant integrase on biotin labeled substrate DNA/SPA beads, P33 labeled target DNA; read-out: Activity (IC50 against HIV-integrase)
pIC50: −log10 of the molar value.
experimentalReadout: pIC50

Sample records with pIC50:
{"structureSmiles": "Cc1ncn(-c2nc(C(=O)NCc3ccc(F)cc3)c(O)c(=O)n2C)n1", "pIC50": "6.00 to 7.00"}
{"structureSmiles": "Cn1c(N2CCCCS2(=O)=O)nc(C(=O)NCc2cccs2)c(O)c1=O", "pIC50": "6.00 to 7.00"}
{"structureSmiles": "Cn1c(N2CCCCS2(=O)=O)nc(C(=O)NCc2ccc(F)c(F)c2)c(O)c1=O", "pIC50": "7.00 to 8.52"}
{"structureSmiles": "Cn1c(N2CCCCS2(=O)=O)nc(C(=O)NCCCc2ccc(Cl)c(Cl)c2)c(O)c1=O", "pIC50": "≤ 6.00"}
{"structureSmiles": "Cc1ccc(CNC(=O)c2nc(N3CCOCC3)n(C)c(=O)c2O)cc1C", "pIC50": "7.00 to 8.52"}

Exam item: Read the entry Cn1c(N2Cc3ccc(F)cc3C2=O)nc(C(=O)NCc2ccc(F)cc2)c(O)c1=O and write its reported pIC50.
Marked response: 7.00 to 8.52

Exam item: Quick one: give measured pIC50 for COc1ccc(CNC(=O)c2nc(N3CCCCS3(=O)=O)n(C)c(=O)c2O)cc1
Marked response: 7.00 to 8.52

Exam item: Please report pIC50 for the following compound: Cn1c(N2CCCCS2(=O)=O)nc(C(=O)NCC(c2ccccc2)c2ccccc2)c(O)c1=O
Marked response: ≤ 6.00

Exam item: Answer with the recorded pIC50 for the compound listed here: Cn1c(N2CCCCS2(=O)=O)nc(C(=O)NCc2cccc(C(F)(F)F)c2)c(O)c1=O
Marked response: 7.00 to 8.52

Exam item: Give me measured pIC50, please, for this compound: CC(=O)N1CCN(c2nc(C(=O)NCc3ccc(F)c(C)c3)c(O)c(=O)n2C)CC1
Marked response: 7.00 to 8.52

Exam item: Input Cn1c(N2CCCCS2(=O)=O)nc(C(=O)NCc2ccccc2C(F)(F)F)c(O)c1=O , output reported pIC50.
Marked response: 6.00 to 7.00

###

Molecular target: HIV-integrase (recombinant integrase) (Human immunodeficiency virus type 1 group M subtype B)
Construct: Recombinant integrase (0.26 ng) was incubated with the beads
Test: HIV-Integrase Inhibition Activity (SPA bead strand-transfer assay)
Conditions: recombinant integrase on biotin labeled substrate DNA/SPA beads, P33 labeled target DNA; read-out: Activity (IC50 against HIV-integrase)
pIC50: −log10 of the molar value.
experimentalReadout: pIC50

{"structureSmiles": "Cn1c(N2CCOCC2)nc(C(=O)NCc2ccc(F)cc2)c(O)c1=O", "pIC50": "7.00 to 8.52"}
{"structureSmiles": "Cn1c(N2CCCCS2(=O)=O)nc(C(=O)NCc2ccccc2F)c(O)c1=O", "pIC50": "6.00 to 7.00"}

Exam item: Retrieve pIC50 measured for Cc1ccc(CNC(=O)c2nc(N3CCOCC3)n(C)c(=O)c2O)cc1F and print it.
Marked response: 7.00 to 8.52

###

Collected IC50 values appear next to each entry.
Molecular target: HIV-integrase (recombinant integrase) (Human immunodeficiency virus type 1 group M subtype B)
Construct: Recombinant integrase (0.26 ng) was incubated with the beads
Assay: HIV-Integrase Inhibition Activity (SPA bead strand-transfer assay)
Settings: recombinant integrase on biotin labeled substrate DNA/SPA beads, P33 labeled target DNA; read-out: Activity (IC50 against HIV-integrase)

{"structureSmiles": "CCCN1CCN(c2nc(C(=O)NCc3ccc(F)c(C)c3)c(O)c(=O)n2C)CC1", "IC50": "3 to 100 nM"}
{"structureSmiles": "Cn1c(N2CCN(C(=O)N3CCNC3=O)CC2)nc(C(=O)NCc2ccc(F)cc2)c(O)c1=O", "IC50": "3 to 100 nM"}
{"structureSmiles": "Cc1ccc(CNC(=O)c2nc(N3CCCCS3(=O)=O)n(C)c(=O)c2O)cc1F", "IC50": "3 to 100 nM"}
{"structureSmiles": "Cn1c(N2CCCCS2(=O)=O)nc(C(=O)NCc2ccc(F)cc2F)c(O)c1=O", "IC50": "3 to 100 nM"}
{"structureSmiles": "Cn1c(N2CCNCC2)nc(C(=O)NCc2ccc(F)cc2)c(O)c1=O", "IC50": "100 to 1000 nM"}
{"structureSmiles": "Cn1c(N2CCCCS2(=O)=O)nc(C(=O)NCc2cc(F)cc(F)c2)c(O)c1=O", "IC50": "100 to 1000 nM"}

Exam item: Return reported IC50. Input molecule: Cn1c(N2CCCCS2(=O)=O)nc(C(=O)NCc2ccc(C(F)(F)F)cc2)c(O)c1=O
Marked response: 100 to 1000 nM

Exam item: Return IC50 for the following molecule: Cn1c(-n2ncccc2=O)nc(C(=O)NCc2ccc(F)cc2)c(O)c1=O
Marked response: 100 to 1000 nM
